The measurements presented in this section are drawn from patent US20090142855.

biological target: IL-23 (p19/p40 heterodimer) (Homo sapiens, UniProt P29460;Q9NPF7 P29460:23-328,Q9NPF7:20-189); assay: filter; dot blot nitrocellulose; Dulbecco's PBS with Ca2+ and Mg2+, 0.1 mg/mL BSA, room temp 30 min; conditions: label: 5'-32P
Sequence (P29460 23-328, chain 1 of 2): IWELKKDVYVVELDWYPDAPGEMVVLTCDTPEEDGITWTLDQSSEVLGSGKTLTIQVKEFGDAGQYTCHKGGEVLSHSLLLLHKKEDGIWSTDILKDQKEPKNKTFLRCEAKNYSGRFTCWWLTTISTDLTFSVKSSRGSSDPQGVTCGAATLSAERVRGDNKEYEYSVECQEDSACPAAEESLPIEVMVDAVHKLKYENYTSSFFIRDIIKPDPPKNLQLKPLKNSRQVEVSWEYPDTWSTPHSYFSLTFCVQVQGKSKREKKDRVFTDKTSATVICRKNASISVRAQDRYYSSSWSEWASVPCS
Sequence (Q9NPF7 20-189, chain 2 of 2): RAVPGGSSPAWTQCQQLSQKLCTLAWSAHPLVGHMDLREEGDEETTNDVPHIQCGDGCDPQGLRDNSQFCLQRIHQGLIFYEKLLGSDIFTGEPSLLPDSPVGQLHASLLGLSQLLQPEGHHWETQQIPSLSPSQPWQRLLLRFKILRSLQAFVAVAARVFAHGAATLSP
Endpoint Label: Kd (nM)
Record the value in nM, omitting the unit from your answer.

Query string: Give its Kd value. Item: ACAGGCAAGUAAUUGGGGAGUGCGGGCGGGGUGU (mixed, 2'-OMe at all C and all U and at G16, G17, G24, G25, G30, G31; all other nucleotides 2'-deoxy (all A deoxy); PS after positions 2, 3, 4, 6, 7, 8, 10, 11, 14, 17, 18, 19, 21, 25, 27, 28, 32; 3' inverted dT) [ARC1626]
Result string: 0.15
